Reported Cmax values follow for various compounds
experiment.description: Multiple component PK study in rat plasma after p.o. GDDP (HPLC-MS)
recorded.conditions: Sprague-Dawley, rat, plasma, po, 0.8 g/kg, Cmax (high / low plasma drug concentrations), rats, GDDP 0.4 and 0.8 g/kg p.o.; classification

// below: answered compounds
# compound, property.name, reported.value
measured = [
    ("CC(C)=CCC[C@](C)(O[C@@H]1O[C@H](CO)[C@@H](O)[C@H](O)[C@H]1O)[C@H]1CC[C@]2(C)[C@@H]1[C@H](O)C[C@@H]1[C@@]3(C)CC[C@H](O)C(C)(C)[C@@H]3[C@@H](O[C@@H]3O[C@H](CO)[C@@H](O)[C@H](O)[C@H]3O[C@@H]3OC[C@@H](O)[C@H](O)[C@H]3O)C[C@]12C [R1, notoginsenoside R1]", "Cmax", "> 20 ng/mL"),
    ("C[C@H]1COC2=C1C(=O)C(=O)c1c2ccc2c1CCCC2(C)C", "Cmax", "< 10 ng/mL"),
    ("Cc1cccc2c3c(ccc12)C1=C(C(=O)C3=O)[C@@H](C)CO1 [DHTS I, dihydrotanshinone I]", "Cmax", "< 10 ng/mL"),
    ("CC(C)=CCC[C@](C)(O[C@@H]1O[C@H](CO)[C@@H](O)[C@H](O)[C@H]1O)[C@H]1CC[C@]2(C)[C@@H]1[C@H](O)C[C@@H]1[C@@]3(C)CC[C@H](O[C@@H]4O[C@H](CO)[C@@H](O)[C@H](O)[C@H]4O[C@@H]4O[C@H](CO)[C@@H](O)[C@H](O)[C@H]4O)C(C)(C)[C@@H]3CC[C@]12C [Rd, ginsenoside Rd]", "Cmax", "> 20 ng/mL"),
    ("Cc1coc2c1C(=O)C(=O)c1c-2ccc2c1CCCC2(C)C", "Cmax", "< 10 ng/mL"),
]

Fill in: Cmax of "Cc1coc2c1C(=O)C(=O)c1c-2ccc2c(C)cccc12" is ___
< 10 ng/mL

====

experiment.description: Stability tests in rat plasma (QC samples, HPLC-MS)
recorded.conditions: three freeze-thaw cycles, rat plasma, spiked 2 ng/mL, n=5
property.name: Stability: RE (%)
Number only, in %; omit the unit.

Recorded results for 3 molecules are shown here.
# molecule, units.of.measure, reported.value
data = [
    ("Cc1cccc2c3c(ccc12)C1=C(C(=O)C3=O)[C@@H](C)CO1 [DHTS I, dihydrotanshinone I]", "%", 2.73),
    ("CC(C)=CCC[C@](C)(O[C@@H]1O[C@H](CO)[C@@H](O)[C@H](O)[C@H]1O)[C@H]1CC[C@]2(C)[C@@H]1[C@H](O)C[C@@H]1[C@@]3(C)CC[C@H](O[C@@H]4O[C@H](CO)[C@@H](O)[C@H](O)[C@H]4O[C@@H]4O[C@H](CO)[C@@H](O)[C@H](O)[C@H]4O)C(C)(C)[C@@H]3CC[C@]12C [Rd, ginsenoside Rd]", "%", -9.59),
    ("Cc1coc2c1C(=O)C(=O)c1c-2ccc2c(C)cccc12", "%", 4.39),
]

Pending molecule:
GET /values?readout=Stability: RE&item= "C[C@H]1COC2=C1C(=O)C(=O)c1c2ccc2c1CCCC2(C)C"
-19.00
